Molecular target: UniProt:P49327
Sequence (P49327 whole entry, the tested form may be a part): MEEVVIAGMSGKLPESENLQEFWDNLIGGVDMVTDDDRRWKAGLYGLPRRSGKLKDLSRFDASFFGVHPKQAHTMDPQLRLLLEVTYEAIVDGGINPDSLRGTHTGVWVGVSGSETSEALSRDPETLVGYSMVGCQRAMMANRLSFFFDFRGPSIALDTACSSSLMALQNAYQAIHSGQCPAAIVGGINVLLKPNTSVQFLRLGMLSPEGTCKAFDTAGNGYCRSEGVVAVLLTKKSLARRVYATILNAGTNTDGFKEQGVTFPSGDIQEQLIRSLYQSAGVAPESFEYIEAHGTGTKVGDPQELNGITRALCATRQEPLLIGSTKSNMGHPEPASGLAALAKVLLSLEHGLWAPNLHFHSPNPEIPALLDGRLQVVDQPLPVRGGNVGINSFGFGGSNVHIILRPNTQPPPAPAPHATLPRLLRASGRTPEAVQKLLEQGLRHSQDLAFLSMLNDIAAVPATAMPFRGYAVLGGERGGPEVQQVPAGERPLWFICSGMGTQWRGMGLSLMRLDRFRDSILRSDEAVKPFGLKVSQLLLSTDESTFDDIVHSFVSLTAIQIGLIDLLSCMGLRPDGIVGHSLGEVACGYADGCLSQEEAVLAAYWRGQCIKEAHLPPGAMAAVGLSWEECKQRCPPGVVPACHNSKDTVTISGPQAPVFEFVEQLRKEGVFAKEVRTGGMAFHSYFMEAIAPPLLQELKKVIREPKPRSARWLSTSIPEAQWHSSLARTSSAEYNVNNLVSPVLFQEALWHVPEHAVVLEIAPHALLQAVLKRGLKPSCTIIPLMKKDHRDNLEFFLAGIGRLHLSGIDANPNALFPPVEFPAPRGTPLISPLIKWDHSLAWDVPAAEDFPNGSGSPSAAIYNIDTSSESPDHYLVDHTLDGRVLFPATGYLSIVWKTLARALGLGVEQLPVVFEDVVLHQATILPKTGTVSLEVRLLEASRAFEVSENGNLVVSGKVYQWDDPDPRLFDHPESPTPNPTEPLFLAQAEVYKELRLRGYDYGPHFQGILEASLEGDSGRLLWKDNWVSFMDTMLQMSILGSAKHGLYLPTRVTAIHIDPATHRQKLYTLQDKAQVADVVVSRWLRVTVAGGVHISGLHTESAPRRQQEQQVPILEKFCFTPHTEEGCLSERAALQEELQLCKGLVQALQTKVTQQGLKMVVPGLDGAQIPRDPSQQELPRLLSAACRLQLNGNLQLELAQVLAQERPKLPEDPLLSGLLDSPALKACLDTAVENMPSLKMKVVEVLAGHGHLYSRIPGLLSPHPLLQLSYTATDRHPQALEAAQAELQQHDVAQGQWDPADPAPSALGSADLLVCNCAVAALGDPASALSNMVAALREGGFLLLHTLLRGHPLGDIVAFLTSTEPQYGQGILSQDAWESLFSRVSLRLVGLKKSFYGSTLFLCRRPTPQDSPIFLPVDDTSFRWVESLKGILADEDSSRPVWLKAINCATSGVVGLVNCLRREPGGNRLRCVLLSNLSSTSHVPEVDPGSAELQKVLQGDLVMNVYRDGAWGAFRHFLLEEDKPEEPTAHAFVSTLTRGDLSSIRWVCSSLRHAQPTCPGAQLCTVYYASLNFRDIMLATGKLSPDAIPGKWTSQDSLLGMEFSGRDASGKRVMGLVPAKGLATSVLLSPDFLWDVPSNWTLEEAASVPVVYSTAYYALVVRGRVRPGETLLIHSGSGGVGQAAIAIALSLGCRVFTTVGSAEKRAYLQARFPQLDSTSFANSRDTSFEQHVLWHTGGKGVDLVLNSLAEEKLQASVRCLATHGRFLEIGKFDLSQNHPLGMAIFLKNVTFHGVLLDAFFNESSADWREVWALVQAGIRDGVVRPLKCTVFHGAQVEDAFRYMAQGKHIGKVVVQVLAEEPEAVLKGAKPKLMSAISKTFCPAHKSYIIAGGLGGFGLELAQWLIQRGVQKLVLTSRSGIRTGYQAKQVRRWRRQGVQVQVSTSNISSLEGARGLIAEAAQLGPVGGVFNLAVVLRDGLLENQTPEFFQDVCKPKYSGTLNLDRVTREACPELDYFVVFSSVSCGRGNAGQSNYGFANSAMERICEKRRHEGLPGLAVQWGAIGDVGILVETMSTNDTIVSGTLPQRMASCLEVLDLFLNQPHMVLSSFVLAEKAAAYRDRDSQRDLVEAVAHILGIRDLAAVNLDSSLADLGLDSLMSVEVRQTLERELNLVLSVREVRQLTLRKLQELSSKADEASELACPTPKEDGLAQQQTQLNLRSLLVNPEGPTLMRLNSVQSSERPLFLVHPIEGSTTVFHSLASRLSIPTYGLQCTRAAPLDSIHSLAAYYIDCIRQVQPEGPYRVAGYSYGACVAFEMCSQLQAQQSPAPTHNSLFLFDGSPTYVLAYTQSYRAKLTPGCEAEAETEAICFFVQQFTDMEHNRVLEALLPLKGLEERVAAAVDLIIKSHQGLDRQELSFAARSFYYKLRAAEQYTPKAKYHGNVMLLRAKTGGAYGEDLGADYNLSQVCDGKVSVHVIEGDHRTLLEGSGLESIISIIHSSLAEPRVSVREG
Test: FAS thioesterase domain inhibitors, dose response, biochemical, endpoint fluorescence intensity, uHTS hits (AID 624327);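 also: fluorescence from hydrolysis of an O-methyl fluorescein acyl ester substrate by the enzyme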
Format: functional
The source made the active and inactive calls.
Endpoint Name: IC50

Take a look at these entries with their results.
Compound	IC50
CC(C)C(=O)Nc1nc(-c2ccc(S(=O)(=O)N3CCOCC3)cc2)cs1	0.614 µM (active)
COc1ccc([C@@H]2[C@@H]3C(=O)N(C(C)(C)C)C(=O)[C@@H]3[C@]3(Cc4ccccc4)C(=O)N(c4cccc(Br)c4)C(=O)N23)cc1	21.5 µM (inactive)
O=C(O)/C(=C/c1ccc(Cl)c([N+](=O)[O-])c1)c1ccc(S(=O)(=O)N2CCCCC2)s1	15.4 µM (active)

If you can, please state the reported IC50 value of CC(C)(C)NC(=O)CC1C[C@H](C(=O)N2CCOCC2)[C@@]2(CCC3CCCC3)c3[nH]c4ccccc4c3CCN2C1=O (some centres undefined) .
2.31 µM (active)

---

Target: Cytochrome P450 3A4 (Homo sapiens, UniProt P08684);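 also: confirmatory qHTS run detecting inhibitors and substrates of CYP3A4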
Sequence (P08684 whole entry): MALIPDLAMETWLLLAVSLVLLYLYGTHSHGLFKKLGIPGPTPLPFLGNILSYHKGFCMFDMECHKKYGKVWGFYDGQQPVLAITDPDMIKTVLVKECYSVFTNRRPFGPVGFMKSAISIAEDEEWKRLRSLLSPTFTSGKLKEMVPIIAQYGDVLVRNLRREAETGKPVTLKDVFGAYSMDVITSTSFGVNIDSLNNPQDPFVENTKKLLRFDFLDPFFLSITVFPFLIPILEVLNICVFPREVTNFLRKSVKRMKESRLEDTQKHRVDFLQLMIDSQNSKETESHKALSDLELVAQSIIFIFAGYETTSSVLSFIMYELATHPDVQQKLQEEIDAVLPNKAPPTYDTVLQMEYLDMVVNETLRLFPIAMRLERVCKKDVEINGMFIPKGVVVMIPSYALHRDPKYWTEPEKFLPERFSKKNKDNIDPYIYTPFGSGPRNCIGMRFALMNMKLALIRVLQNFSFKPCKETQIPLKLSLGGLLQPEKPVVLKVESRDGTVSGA
Conditions: Potency
Endpoint Name: AC50

If you can, please state the reported AC50 value of O=[N+]([O-])c1ccc2[nH]cnc2c1 .
25.1 µM (inconclusive)

If you can, please state the reported AC50 value of C/C=C/OC(=O)NC(c1cccc(C)c1)[C@@]1(C(=O)OCC)CCCC1=O (stereo partly drawn) .
1.26 µM (inconclusive)

If you can, please state the reported AC50 value of O=c1c(O)c(-c2ccccc2)oc2cccc(O)c12 .
12.6 µM (inconclusive)

---

Experiment: microbe, parasite or virus in culture
Format: functional
Settings: Mycobacterium tuberculosis
Calls of active or inactive are those of the source.
The molecules listed here are annotated with their CC50.

Take a look at these entries with their results.
Smiles	CC50
CCOc1cc(/C=C\[N+](=O)[O-])ccc1OCC(=O)Nc1ccccc1C	> 40 µM (active)
Cc1nn2c(NCc3ccccn3)cc(C(C)C)nc2c1-c1ccccc1	24.5 µM (active)
COc1ccc(-c2csc3ncnc(N4CCN(c5ccccc5OC)CC4)c23)cc1	> 40 µM (active)
CCOc1ccc(-c2cnc(NCc3cccc4ccccc34)n2CCOC)cc1	12.2 µM (active)

Field: next molecule
If you can, please state the reported CC50 value of COc1ccc(C=C2C=C(C(C)(C)C)C(=O)C(C(C)(C)C)=C2)cc1OC .
12.8 µM (active)

---

Target: Carboxy-terminal domain RNA polymerase II polypeptide A small phosphatase 1 (Homo sapiens)
Sequence (Q9GZU7 whole entry): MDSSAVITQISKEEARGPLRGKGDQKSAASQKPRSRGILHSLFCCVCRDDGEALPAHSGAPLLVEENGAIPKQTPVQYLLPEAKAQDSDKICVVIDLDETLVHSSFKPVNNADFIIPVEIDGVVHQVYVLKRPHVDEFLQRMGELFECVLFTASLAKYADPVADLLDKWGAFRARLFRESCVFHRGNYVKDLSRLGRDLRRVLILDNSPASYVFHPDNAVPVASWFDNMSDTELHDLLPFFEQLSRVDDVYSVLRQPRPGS
Experiment: inhibitors of CTDSP1, concentration-response testing, biochemical assay, absorbance-based, actives from ultra-high-throughput screening (AID 540297)
Format: functional
Active and inactive are the calls of the source.
Endpoint Name: IC50

Take a look at these entries with their results.
Smiles	IC50
COc1ccc(Cc2nnc(NC(=O)Cc3cccs3)s2)cc1	2.82 µM (active)
COc1cccc(NC(=O)COC(=O)c2ccc(S(=O)(=O)NCc3ccco3)cc2)c1	7.96 µM (active)
CCN1C(=O)[C@H]2[C@H]3CN=C(SCC4CC4)N3[C@@](Cc3ccccc3)(C(=O)OC)[C@H]2C1=O	12.1 µM (active)

Field: next molecule
If you can, please state the reported IC50 value of Cn1c(=O)c(NC(=O)c2ccccc2)c2n(c1=S)CCCCC2 .
14.3 µM (active)
